Tested on: AncSZ
Test: phosphorylation enrichment, bacterial display (enrichment ratio); higher = better substrate or ligand; peptides without Tyr show the background;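 note: 11-residue human phosphosite peptides and single-mutation variants displayed on the E. coli surface, counted by deep sequencing, each peptide's frequency after selection divided by its frequency in the unselected input library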;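 note: frequency after pTyr selection over input frequency; kinase dosed for 20-30% of maximal phosphorylation in three min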
The following sequences are shown together with reported phosphorylation enrichment values.
quantity measured: phosphorylation enrichment

ordered residues: KRAAIYNPVIF [RHO_Y301_S297R_YF]
measured result: 0.725

ordered residues: LADMNYVHCDL [EPHB2_Y742_R745C]
measured result: 1.01

ordered residues: RQEEEYKRFSE [SFSWAP_Y133_L136F]
measured result: 1.41

ordered residues: CSRHFYQLTKL [AR_Y858_R856H]
measured result: 1.06

---

Target: Jak2 (UniProt O60674)
Sequence (O60674 whole entry, looked up): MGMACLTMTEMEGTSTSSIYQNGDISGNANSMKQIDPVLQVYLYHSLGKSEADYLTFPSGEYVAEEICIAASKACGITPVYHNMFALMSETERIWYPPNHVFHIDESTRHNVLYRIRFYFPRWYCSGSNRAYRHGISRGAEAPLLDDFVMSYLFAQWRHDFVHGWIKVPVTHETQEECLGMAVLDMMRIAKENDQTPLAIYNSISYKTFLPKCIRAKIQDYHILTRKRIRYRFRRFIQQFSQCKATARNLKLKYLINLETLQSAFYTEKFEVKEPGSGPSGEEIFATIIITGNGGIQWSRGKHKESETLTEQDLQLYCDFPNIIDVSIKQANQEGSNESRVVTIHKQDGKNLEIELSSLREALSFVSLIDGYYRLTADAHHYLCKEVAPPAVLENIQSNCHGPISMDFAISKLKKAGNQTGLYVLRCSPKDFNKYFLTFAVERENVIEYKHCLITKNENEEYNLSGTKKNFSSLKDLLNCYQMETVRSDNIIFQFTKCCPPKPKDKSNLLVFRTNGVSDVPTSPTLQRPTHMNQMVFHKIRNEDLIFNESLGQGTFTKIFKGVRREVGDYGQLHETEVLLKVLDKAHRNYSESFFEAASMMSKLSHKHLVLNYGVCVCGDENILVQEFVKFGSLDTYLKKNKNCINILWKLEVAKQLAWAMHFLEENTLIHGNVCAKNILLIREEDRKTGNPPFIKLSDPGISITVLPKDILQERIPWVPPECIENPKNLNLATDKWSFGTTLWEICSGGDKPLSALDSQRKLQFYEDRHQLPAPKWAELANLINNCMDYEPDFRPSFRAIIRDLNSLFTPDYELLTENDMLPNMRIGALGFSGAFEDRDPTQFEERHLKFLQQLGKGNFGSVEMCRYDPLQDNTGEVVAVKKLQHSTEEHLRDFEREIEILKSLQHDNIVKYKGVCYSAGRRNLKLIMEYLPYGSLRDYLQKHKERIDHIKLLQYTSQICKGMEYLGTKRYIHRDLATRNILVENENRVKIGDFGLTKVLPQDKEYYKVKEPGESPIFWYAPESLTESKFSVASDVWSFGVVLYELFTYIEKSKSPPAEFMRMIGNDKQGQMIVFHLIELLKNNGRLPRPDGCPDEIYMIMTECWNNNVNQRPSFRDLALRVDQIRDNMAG
Experiment: phosphorylation enrichment, bacterial display (enrichment ratio); higher = better substrate or ligand; peptides without Tyr show the background

ordered residues: ISGGGYRARPA [FGB_Y71]
phosphorylation enrichment: 0.603
--
ordered residues: ATGMEYLASQK [FGFR2_Y616_R612T]
phosphorylation enrichment: 0.68
--
ordered residues: RSSKMYFKTRS [LPL_Y329_L330F]
phosphorylation enrichment: 0.989
--
ordered residues: EKHGQYLIGHG [EPHB4_Y581_D576E]
phosphorylation enrichment: 0.555
--
ordered residues: ERFAFYRDSPR [FOXE3_Y108]
phosphorylation enrichment: 0.835
--
ordered residues: KAEQLYIGVTV [EFHC2_Y509_E507Q]
phosphorylation enrichment: 0.964
--
ordered residues: FDCKWYIPLTD [BCR_Y756_YF]
phosphorylation enrichment: 1.44
--
ordered residues: GSSKIYFLHAD [TLR5_Y108_P112A]
phosphorylation enrichment: 0.954
--
ordered residues: KLKEKYEKDIA [HMGB1_Y155]
phosphorylation enrichment: 0.784
--
ordered residues: LERDIYNREEF [HLA-DPB1_Y59_Y57D]
phosphorylation enrichment: 1.3
--
ordered residues: FFRRHYPLTTL [TNS4_Y644]
phosphorylation enrichment: 0.876
--
ordered residues: PADCRYYTFPQ [GAMT_Y222_A224T]
phosphorylation enrichment: 4.4
--
ordered residues: YNNYGYGSDGF [HNRNPH3_Y161_N163S]
phosphorylation enrichment: 0.631
--
ordered residues: RLSARYFQGDL [PDK3_Y337_Y334S]
phosphorylation enrichment: 0.718
--
ordered residues: PYRFIYMAVQH [PTPN11_Y515_Q510P]
phosphorylation enrichment: 1.08
--
ordered residues: LQRCKYSHMEP [TEX45_Y434]
phosphorylation enrichment: 1.5
--
ordered residues: ATQDDYVLEVR [PTPRZ1_Y2179]
phosphorylation enrichment: 1.08
--
ordered residues: SLQFEYVHYGG [CDC14A_Y591_S589F]
phosphorylation enrichment: 0.766
--
ordered residues: LQFKNYQQLFD [MAN2A1_Y442]
phosphorylation enrichment: 0.882
--
ordered residues: YLEKYYKFGSR [NNMT_Y25]
phosphorylation enrichment: 0.604
--
ordered residues: PVDVAYRRGFF [PLEC_Y2967_YF]
phosphorylation enrichment: 0.728
--
ordered residues: TSSAGYRAAEG [COL6A3_Y543]
phosphorylation enrichment: 0.365
--
ordered residues: FNDSAYNQQLI [ZPLD1_Y198_T197A_YF]
phosphorylation enrichment: 0.5
--
ordered residues: MTRDIYRASFF [ALK_Y1278_A1274T_YF]
phosphorylation enrichment: 0.621
--
ordered residues: SMAKFYASEIA [ACADSB_Y373_YF]
phosphorylation enrichment: 0.619
--
ordered residues: TEDELYQLFLQ [RASGRP2_Y378_S381F]
phosphorylation enrichment: 1.3
--
ordered residues: ISSLDYISKTK [VAV3_Y294]
phosphorylation enrichment: 0.495
--
ordered residues: VEDDMYRKTCT [XPA_Y257_L252V]
phosphorylation enrichment: 1.33
--
ordered residues: ISDDNYGRIRL [ARCN1_Y310_K309N]
phosphorylation enrichment: 0.525
--
ordered residues: NFYEYYVDDPL [GCHFR_Y48_P53L]
phosphorylation enrichment: 1.64
--
ordered residues: YSTSPYLLEAA [BRIP1_Y921]
phosphorylation enrichment: 0.694
--
ordered residues: LIHLHYIRRDF [BBS4_Y43_K46R_YF]
phosphorylation enrichment: 0.972
--
ordered residues: LFEDHYLLGTS [ASS1_Y87_R86H_YF]
phosphorylation enrichment: 1.15
--
ordered residues: MDYRSYPHEYG [RBM10_Y44_R46H]
phosphorylation enrichment: 0.682
--
ordered residues: VNYGAYINDFK [GLB1_Y488]
phosphorylation enrichment: 0.665
--
ordered residues: SEQNNYSRVAN [CWC22_Y797_R794Q]
phosphorylation enrichment: 0.535
--
ordered residues: NDQANYLLNTD [ADA_Y290_S291L]
phosphorylation enrichment: 0.934
--
ordered residues: AAVPAYDKIRV [STXBP2_Y401]
phosphorylation enrichment: 0.874
--
ordered residues: DVLPEYKLQAP [KCNH2_Y388]
phosphorylation enrichment: 0.659
--
ordered residues: LSAPEYGPKLK [TBC1D14_Y46]
phosphorylation enrichment: 0.409
--
ordered residues: VIKDKYPKARF [APTX_Y209_YF]
phosphorylation enrichment: 0.772
--
ordered residues: QQLQGYIPSNF [FRK_Y99_YF]
phosphorylation enrichment: 0.981
--
ordered residues: KAIDMYLMGCF [GABRB2_Y308]
phosphorylation enrichment: 1.04
--
ordered residues: IEPCIYIPEDD [XPNPEP3_Y455_G453C]
phosphorylation enrichment: 1.25
--
ordered residues: KVPCHYDDPGK [FOXG1_Y246_R244C]
phosphorylation enrichment: 0.717
--
ordered residues: VTQEQYELHCE [CBL_Y368_Y371H]
phosphorylation enrichment: 1.1
--
ordered residues: AFSLKYDQQTQ [SYTL4_Y366_E367D]
phosphorylation enrichment: 1.03
--
ordered residues: FDCGMYSHLQG [LGR4_Y848_YF]
phosphorylation enrichment: 1.18
--
ordered residues: VSNFNYFYHRE [KCNA1_Y413]
phosphorylation enrichment: 0.943
--
ordered residues: EHLNRYISDTF [TTLL10_Y446]
phosphorylation enrichment: 0.535
--
ordered residues: MGHVNYGAFIN [GLB1_Y485_R482H_YF]
phosphorylation enrichment: 0.72
--
ordered residues: TTEHIYGDKFF [UBA7_Y524_N527K]
phosphorylation enrichment: 0.648
--
ordered residues: IHETTYKSIMK [ACTA1_Y281_N282K]
phosphorylation enrichment: 0.692
--
ordered residues: LEITWYPFDVE [RIPOR2_Y316]
phosphorylation enrichment: 2.3
--
ordered residues: LRSELYSLIAR [PHIP_Y16_F17S]
phosphorylation enrichment: 0.54
